- Target Desc: H1299 cell pAxl (Homo sapiens, UniProt P30530)
- Construct: endogenous in cells
- Sequence (P30530 26-894): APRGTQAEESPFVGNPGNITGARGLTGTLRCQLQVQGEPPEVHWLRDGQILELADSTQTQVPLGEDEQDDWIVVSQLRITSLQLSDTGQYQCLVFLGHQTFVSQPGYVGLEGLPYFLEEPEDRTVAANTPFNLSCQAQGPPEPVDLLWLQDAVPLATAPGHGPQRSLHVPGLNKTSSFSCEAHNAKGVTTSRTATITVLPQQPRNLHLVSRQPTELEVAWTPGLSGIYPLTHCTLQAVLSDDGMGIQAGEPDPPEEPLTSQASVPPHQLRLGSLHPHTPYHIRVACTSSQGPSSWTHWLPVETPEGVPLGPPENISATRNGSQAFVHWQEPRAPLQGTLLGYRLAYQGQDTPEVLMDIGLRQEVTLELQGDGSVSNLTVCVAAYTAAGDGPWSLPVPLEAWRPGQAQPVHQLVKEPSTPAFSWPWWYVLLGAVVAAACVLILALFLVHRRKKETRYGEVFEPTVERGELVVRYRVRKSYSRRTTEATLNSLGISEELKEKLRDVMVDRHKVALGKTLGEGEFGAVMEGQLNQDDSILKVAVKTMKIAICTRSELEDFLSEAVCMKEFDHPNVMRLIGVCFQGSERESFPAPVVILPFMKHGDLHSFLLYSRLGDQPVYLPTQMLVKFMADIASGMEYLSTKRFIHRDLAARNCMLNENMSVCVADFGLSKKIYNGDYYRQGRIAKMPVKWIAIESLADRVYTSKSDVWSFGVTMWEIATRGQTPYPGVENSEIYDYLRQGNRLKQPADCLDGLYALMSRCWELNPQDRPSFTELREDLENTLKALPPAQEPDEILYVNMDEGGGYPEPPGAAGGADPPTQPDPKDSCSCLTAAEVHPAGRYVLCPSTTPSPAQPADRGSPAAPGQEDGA
- Experiment: Inhibitory activity on the cell pAxl (Western Blot)
- Cond: H1299 cells, compound 1.1, 3.3, 10, 30 nM, hGAS6 200 ng/mL
Parameter: IC50

- Compound String: "COc1cc2nccc(Oc3ncc(NC(=O)c4nn(C5CC5)cc(-c5ccc(F)cc5)c4=O)cn3)c2cc1OC"
  Parameter: "IC50"
  Value: "< 1.1 nM"

Request: Give a short answer stating reported IC50 for COc1cc2nccc(Oc3ccc(NC(=O)c4cn(C5CC5)cc(-c5ccc(F)cc5)c4=O)nc3)c2cc1OC .
Result: < 1.1 nM

Request: Give a short answer stating reported IC50 for COc1cc2nccc(Oc3cnc(NC(=O)c4cn(C(C)C)cc(-c5ccc(F)cc5)c4=O)nc3)c2cc1OC .
Result: < 1.1 nM

###

Recorded AUC(0-t), one value per entry.
- Experiment: Rat PK evaluation
- Type: in vivo
- Cond: rat, plasma; SD rats, PO 5 mg/kg, n = 3; read-out: AUClast po (area under the drug-time curve from 0 to 48 hours)
Report the figure in µg·h/mL without appending any unit label.

Use the examples below as a reference point.
- Compound String: "COc1cc2nccc(Oc3ccc(NC(=O)c4cn(C5CC5)cc(-c5ccc(F)cc5)c4=O)nc3)c2cc1OC"
  AUC(0-t) [µg·h/mL]: 152
- Compound String: "COc1cc2nccc(Oc3ncc(NC(=O)c4nn(C5CC5)cc(-c5ccc(F)cc5)c4=O)cn3)c2cc1OC"
  AUC(0-t) [µg·h/mL]: 273
- Compound String: "COc1cc2nccc(Oc3ncc(NC(=O)c4nn(C(C)C)cc(-c5ccc(F)cc5)c4=O)cn3)c2cc1OC"
  AUC(0-t) [µg·h/mL]: 321
- Compound String: "COc1cc2nccc(Oc3cnc(NC(=O)c4cn(C5CC5)cc(-c5ccc(F)cc5)c4=O)nc3)c2cc1OC"
  AUC(0-t) [µg·h/mL]: 90.5
- Compound String: "COc1cc2nccc(Oc3cnc(NC(=O)c4cn(C(C)C)cc(-c5ccc(F)cc5)c4=O)nc3)c2cc1OC"
  AUC(0-t) [µg·h/mL]: 77.9

Request: Give a short answer stating reported AUC(0-t) for COc1cc2nccc(Oc3ccc(NC(=O)c4nn(C5CC5)cc(-c5ccc(F)cc5)c4=O)nc3)c2cc1OC .
Result: 310

Request: Give a short answer stating reported AUC(0-t) for COc1cc2nccc(Oc3ccc(NC(=O)c4cn(C(C)C)nc(-c5ccc(F)cc5)c4=O)cn3)c2cc1OC .
Result: 25.5

###

- Target Desc: Ba/F3 LMNA-NTRK1-V573M cells (Homo sapiens, UniProt P04629, V573M, cells depend on it)
- Construct: Ba/F3 LMNA-NTRK1 G667C and Ba/F3 LMNA-NTRK1-V573M are NTRK1 gene mutant cells; fused on or other part: P02545 (Prelamin-A/C)
- Sequence (P04629 whole entry V573M, the tested form may be a part): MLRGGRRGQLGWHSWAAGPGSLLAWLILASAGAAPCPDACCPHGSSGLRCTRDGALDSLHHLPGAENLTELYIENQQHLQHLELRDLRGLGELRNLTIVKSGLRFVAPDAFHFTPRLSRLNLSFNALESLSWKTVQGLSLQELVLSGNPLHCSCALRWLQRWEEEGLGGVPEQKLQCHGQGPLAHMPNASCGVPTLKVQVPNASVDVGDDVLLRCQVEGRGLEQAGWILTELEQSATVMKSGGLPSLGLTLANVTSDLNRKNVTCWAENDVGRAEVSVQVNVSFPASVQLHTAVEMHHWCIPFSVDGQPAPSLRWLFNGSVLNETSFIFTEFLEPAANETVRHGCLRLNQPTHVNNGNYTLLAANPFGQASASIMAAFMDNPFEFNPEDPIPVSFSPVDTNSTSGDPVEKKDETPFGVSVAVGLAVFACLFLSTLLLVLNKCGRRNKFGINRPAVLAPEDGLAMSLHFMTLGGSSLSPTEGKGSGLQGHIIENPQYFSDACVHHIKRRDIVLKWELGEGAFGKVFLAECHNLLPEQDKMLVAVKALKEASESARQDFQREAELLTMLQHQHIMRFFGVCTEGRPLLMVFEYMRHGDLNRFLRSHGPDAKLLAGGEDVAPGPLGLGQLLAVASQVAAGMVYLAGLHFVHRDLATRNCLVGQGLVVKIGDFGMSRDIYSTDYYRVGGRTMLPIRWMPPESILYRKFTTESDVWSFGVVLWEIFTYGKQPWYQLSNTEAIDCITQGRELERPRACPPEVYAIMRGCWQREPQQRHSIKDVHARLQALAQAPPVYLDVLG
- Experiment: Cell viability test (CTG), Ba/F3 LMNA-NTRK1-V573M
- Assay type: cell-based
- Cond: NTRK1 gene mutant cell, 72 hours, read-out: IC50 Ba/F3 LMNA-NTRK1-V573M
Parameter: GI50 (nM)
Report the figure in nM without appending any unit label.

Use the examples below as a reference point.
- Compound String: "COc1cc2nccc(Oc3cnc(NC(=O)c4cn(C(C)C)nc(-c5ccc(F)cc5)c4=O)nc3)c2cc1OC"
  U: "nM"
  Value: 5
- Compound String: "COc1cc2nccc(Oc3ccc(NC(=O)c4cn(C(C)C)nc(-c5ccc(F)cc5)c4=O)cn3)c2cc1OC"
  U: "nM"
  Value: 7.5
- Compound String: "COc1cc2nccc(Oc3ncc(NC(=O)c4nn(C(C)C)cc(-c5ccc(F)cc5)c4=O)cn3)c2cc1OC"
  U: "nM"
  Value: 2.7

Request: Give a short answer stating reported GI50 for COc1cc2nccc(Oc3ccc(NC(=O)c4nn(C5CC5)cc(-c5ccc(F)cc5)c4=O)nc3)c2cc1OC .
Result: 1.4

Request: Give a short answer stating reported GI50 for COc1cc2nccc(Oc3ncc(NC(=O)c4cn(C(C)C)nc(-c5ccc(F)cc5)c4=O)cn3)c2cc1OC .
Result: 9.1

Request: Give a short answer stating reported GI50 for COc1cc2nccc(Oc3ccc(NC(=O)c4nn(C(C)C)cc(-c5ccc(F)cc5)c4=O)nc3)c2cc1OC .
Result: 0.51

Request: Give a short answer stating reported GI50 for COc1cc2nccc(Oc3cnc(NC(=O)c4nn(C5CC5)cc(-c5ccc(F)cc5)c4=O)nc3)c2cc1OC .
Result: 6

###

- Experiment: Rat PK evaluation
- Type: in vivo
- Cond: rat, plasma; SD rats, IV 1 mg/kg, n = 3; read-out: tz1/2 iv (terminal elimination half-life) (converted)
Recorded half-life, one value per entry.
Report the figure in h without appending any unit label.

Request: Give a short answer stating reported half-life for COc1cc2nccc(Oc3ccc(NC(=O)c4nn(C(C)C)cc(-c5ccc(F)cc5)c4=O)nc3)c2cc1OC .
Result: 18.5

Request: Give a short answer stating reported half-life for COc1cc2nccc(Oc3ccc(NC(=O)c4nn(C5CC5)cc(-c5ccc(F)cc5)c4=O)nc3)c2cc1OC .
Result: 32.6

Request: Give a short answer stating reported half-life for COc1cc2nccc(Oc3ccc(NC(=O)c4cn(C(C)C)nc(-c5ccc(F)cc5)c4=O)cn3)c2cc1OC .
Result: 15.2

Request: Give a short answer stating reported half-life for COc1cc2nccc(Oc3ccc(NC(=O)c4cn(C(C)C)nc(-c5ccc(F)cc5)c4=O)nc3)c2cc1OC .
Result: 14.1

Request: Give a short answer stating reported half-life for COc1cc2nccc(Oc3ncc(NC(=O)c4nn(C5CC5)cc(-c5ccc(F)cc5)c4=O)cn3)c2cc1OC .
Result: 5.98

Request: Give a short answer stating reported half-life for COc1cc2nccc(Oc3cnc(NC(=O)c4cn(C(C)C)cc(-c5ccc(F)cc5)c4=O)nc3)c2cc1OC .
Result: 3.1

Request: Give a short answer stating reported half-life for COc1cc2nccc(Oc3ccc(NC(=O)c4cn(C(C)C)cc(-c5ccc(F)cc5)c4=O)nc3)c2cc1OC .
Result: 6.3

Request: Give a short answer stating reported half-life for COc1cc2nccc(Oc3ccc(NC(=O)c4nn(C5CC5)cc(-c5ccc(F)cc5)c4=O)cn3)c2cc1OC .
Result: 11.6

Request: Give a short answer stating reported half-life for COc1cc2nccc(Oc3cnc(NC(=O)c4nn(C5CC5)cc(-c5ccc(F)cc5)c4=O)nc3)c2cc1OC .
Result: 5.47

###

- Experiment: Rat PK evaluation
- Assay type: in vivo
- Cond: rat, plasma; SD rats, IV 1 mg/kg, n = 3; read-out: AUClast iv (area under the drug-time curve from 0 to 48 hours)
Recorded log10 AUC(0-t), one value per entry.
Response schema: value (number) is log10 of AUC(0-t) in units of ng·h/mL.

Use the examples below as a reference point.
- Compound String: "COc1cc2nccc(Oc3cnc(NC(=O)c4nn(C(C)C)cc(-c5ccc(F)cc5)c4=O)nc3)c2cc1OC"
  log10 AUC(0-t): 4.69
- Compound String: "COc1cc2nccc(Oc3ccc(NC(=O)c4nn(C5CC5)cc(-c5ccc(F)cc5)c4=O)cn3)c2cc1OC"
  log10 AUC(0-t): 5.22
- Compound String: "COc1cc2nccc(Oc3ccc(NC(=O)c4cn(C5CC5)cc(-c5ccc(F)cc5)c4=O)nc3)c2cc1OC"
  log10 AUC(0-t): 4.62
- Compound String: "COc1cc2nccc(Oc3ccc(NC(=O)c4nn(C(C)C)cc(-c5ccc(F)cc5)c4=O)nc3)c2cc1OC"
  log10 AUC(0-t): 4.26
- Compound String: "COc1cc2nccc(Oc3ccc(NC(=O)c4cn(C(C)C)nc(-c5ccc(F)cc5)c4=O)cn3)c2cc1OC"
  log10 AUC(0-t): 3.78

Request: Give a short answer stating reported log10 AUC(0-t) for COc1cc2nccc(Oc3ncc(NC(=O)c4cn(C(C)C)nc(-c5ccc(F)cc5)c4=O)cn3)c2cc1OC .
Result: 3.86

Request: Give a short answer stating reported log10 AUC(0-t) for COc1cc2nccc(Oc3ccc(NC(=O)c4cn(C(C)C)nc(-c5ccc(F)cc5)c4=O)nc3)c2cc1OC .
Result: 3.44

Request: Give a short answer stating reported log10 AUC(0-t) for COc1cc2nccc(Oc3ncc(NC(=O)c4nn(C5CC5)cc(-c5ccc(F)cc5)c4=O)cn3)c2cc1OC .
Result: 4.84

Request: Give a short answer stating reported log10 AUC(0-t) for COc1cc2nccc(Oc3ccc(NC(=O)c4nn(C5CC5)cc(-c5ccc(F)cc5)c4=O)nc3)c2cc1OC .
Result: 5.35

Request: Give a short answer stating reported log10 AUC(0-t) for COc1cc2nccc(Oc3cnc(NC(=O)c4cn(C(C)C)cc(-c5ccc(F)cc5)c4=O)nc3)c2cc1OC .
Result: 4.46

Request: Give a short answer stating reported log10 AUC(0-t) for COc1cc2nccc(Oc3ccc(NC(=O)c4cn(C(C)C)cc(-c5ccc(F)cc5)c4=O)nc3)c2cc1OC .
Result: 4.54

Request: Give a short answer stating reported log10 AUC(0-t) for COc1cc2nccc(Oc3cnc(NC(=O)c4nn(C5CC5)cc(-c5ccc(F)cc5)c4=O)nc3)c2cc1OC .
Result: 4.75

Request: Give a short answer stating reported log10 AUC(0-t) for COc1cc2nccc(Oc3cnc(NC(=O)c4cn(C(C)C)nc(-c5ccc(F)cc5)c4=O)nc3)c2cc1OC .
Result: 3.84

Request: Give a short answer stating reported log10 AUC(0-t) for COc1cc2nccc(Oc3ccc(NC(=O)c4nn(C(C)C)cc(-c5ccc(F)cc5)c4=O)cn3)c2cc1OC .
Result: 4.90

Request: Give a short answer stating reported log10 AUC(0-t) for COc1cc2nccc(Oc3cnc(NC(=O)c4cn(C5CC5)cc(-c5ccc(F)cc5)c4=O)nc3)c2cc1OC .
Result: 4.38

Request: Give a short answer stating reported log10 AUC(0-t) for COc1cc2nccc(Oc3ncc(NC(=O)c4nn(C(C)C)cc(-c5ccc(F)cc5)c4=O)cn3)c2cc1OC .
Result: 4.91
